Quick list: MIC per entry.
tested on: Pseudomonas aeruginosa ATTC27853; experiment: Broth microdilution MIC in Mueller Hinton broth; assay type: cell-based; settings: Pseudomonas aeruginosa, ATTC27853; MHB; read-out: Minimum Inhibitory Concentration (MIC) Pseudomonas aeruginosa ATTC27853
quantity_name: MIC

# molecule, quantity_name, reading
records = [
    ("CCCCCCCCCCCC(=O)NC1CN2CCC1CC2 (stereo not shown)", "MIC", "> 100 µM"),
    ("CCCCCCCCCCCCCC(=O)NC1CN2CCC1CC2 (stereo not shown)", "MIC", "> 100 µM"),
    ("CCCCCCCCCCCCCC[N+]12CCC(CC1)C(NC(=O)c1ccccc1)C2 (stereo not shown)", "MIC", "63 µM"),
    ("CCCCCCCCCCCCCCCC(=O)NC1CN2CCC1CC2 (stereo not shown)", "MIC", "> 100 µM"),
    ("CCCCCCCCCCCC[N+]12CCC(CC1)C(NC(=O)c1ccccc1)C2 (stereo not shown)", "MIC", "> 125 µM"),
    ("CCCCCCCCCCCCCCCC[N+]12CCC(CC1)C(NC(=O)c1ccccc1)C2 (stereo not shown)", "MIC", "> 125 µM"),
    ("O=C(NC1CN2CCC1CC2)c1ccccc1 (racemic) [QBn, (±)3-benzamidoquinuclidine]", "MIC", "> 100 µM"),
]

---

test system: Staphylococcus aureus Clinical/MRSA; assay: Broth microdilution MIC in Mueller Hinton broth; assay type: cell-based; details: Staphylococcus aureus, MRSA, read-out: Minimum Inhibitory Concentration (MIC) Staphylococcus aureus Clinical/MRSA
Threshold-based label: MIC under 60 µM gives 1.0, MIC not under 60 µM gives 0.0.

# compound, class_name
records = [
    ("CCCCCCCCCCCC(=O)NC1C[N+]2(C)CCC1CC2 (stereo not drawn) [QC12-Me]", 0.0),
    ("CCCCCCCCCCCCCC(=O)NC1CN2CCC1CC2 (stereo not drawn) [QC14]", 1.0),
    ("CCCCCCCCCCCCCCCC(=O)NC1C[N+]2(C)CCC1CC2 (stereo not drawn) [QC16-Me]", 1.0),
    ("CCCCCCCCCCCC[N+]12CCC(CC1)C(NC(C)=O)C2 (stereo not drawn) [QAc-C12]", 0.0),
    ("CCCCCCCCCCCCCC[N+]12CCC(CC1)C(NC(C)=O)C2 (stereo not drawn) [QAc-C14]", 0.0),
    ("C=CC[N+]12CCC(CC1)C(NC(=O)CCCCCCCCCCC)C2 (stereo not drawn) [QC12-Ally]", 0.0),
    ("CCCCCCCCCCCCCCCC[N+]12CCC(CC1)C(NC(C)=O)C2 (stereo not drawn) [QAc-C16]", 0.0),
    ("NC1CN2CCC1CC2 (stereo not drawn) [QNH2, 3-aminoquinuclidine]", 0.0),
    ("CCCCCCCCCCCCCC[N+]12CCC(CC1)C(NC(=O)c1ccccc1)C2 (stereo not drawn) [QBn-C14]", 1.0),
    ("CCCCCCCCCCCCCCCC(=O)NC1CN2CCC1CC2 (stereo not drawn) [QC16]", 0.0),
    ("CC(=O)NC1CN2CCC1CC2 (racemic) [QAc, (±)3-acetamidoquinuclidine]", 0.0),
    ("C=CC[N+]12CCC(CC1)C(NC(=O)CCCCCCCCCCCCC)C2 (stereo not drawn) [QC14-Ally]", 1.0),
    ("O=C(NC1CN2CCC1CC2)c1ccccc1 (racemic) [QBn, (±)3-benzamidoquinuclidine]", 0.0),
    ("C=CC[N+]12CCC(CC1)C(NC(=O)CCCCCCCCCCCCCCC)C2 (stereo not drawn) [QC16-Ally]", 1.0),
    ("CCCCCCCCCCCCCCCC[N+]12CCC(CC1)C(NC(=O)c1ccccc1)C2 (stereo not drawn) [QBn-C16]", 1.0),
    ("CCCCCCCCCCCC(=O)NC1CN2CCC1CC2 (stereo not drawn) [QC12]", 0.0),
    ("CCCCCCCCCCCC[N+]12CCC(CC1)C(NC(=O)c1ccccc1)C2 (stereo not drawn) [QBn-C12]", 0.0),
]
